# assay procedure: yeast display, Sf9 membrane polyspecificity reagent, FACS + sequencing; frameworks hold sequencing errors
experimental readout: polyreactivity (PSR sort gate)

sequence entry	value measured
QVQLQESGGGLVQAGGSLRLSCAASRNISGSSDLGWYHQAPGKEREFVASITSGGTTYYADSVKGRFTISRDNAKNTVYLQMNSLKPEDTAVYYCAVGDPADAEFGYWGQGTQVTVSS	low polyreactivity
QVQLVESGGGLVQEGGSIRLSCDASGFIFDVYAIGWYRTAAGKERELVDAISSVGSTYYADSVKGRFTISRDNATNTVYLQMNSLKPEDTAVYYCADVRFYTYNYWGQGTQVTVSS	low polyreactivity
QVQLVESGGGLVQAGGSLRLSCAASGSIFVRNAMGWYRQSPGKERELVAAITSGDSTNYADSVKGRFTISRDNAKNTVYLQMYCLKPEDTAVYYCNAQIYSVYRDGRDIYKYDYWGQGTQVTVSS	low polyreactivity
